Target: human Cav2.2 (composed of the subunits α1, β3 and α2δ) (Homo sapiens)
Sequence (Q00975 whole entry): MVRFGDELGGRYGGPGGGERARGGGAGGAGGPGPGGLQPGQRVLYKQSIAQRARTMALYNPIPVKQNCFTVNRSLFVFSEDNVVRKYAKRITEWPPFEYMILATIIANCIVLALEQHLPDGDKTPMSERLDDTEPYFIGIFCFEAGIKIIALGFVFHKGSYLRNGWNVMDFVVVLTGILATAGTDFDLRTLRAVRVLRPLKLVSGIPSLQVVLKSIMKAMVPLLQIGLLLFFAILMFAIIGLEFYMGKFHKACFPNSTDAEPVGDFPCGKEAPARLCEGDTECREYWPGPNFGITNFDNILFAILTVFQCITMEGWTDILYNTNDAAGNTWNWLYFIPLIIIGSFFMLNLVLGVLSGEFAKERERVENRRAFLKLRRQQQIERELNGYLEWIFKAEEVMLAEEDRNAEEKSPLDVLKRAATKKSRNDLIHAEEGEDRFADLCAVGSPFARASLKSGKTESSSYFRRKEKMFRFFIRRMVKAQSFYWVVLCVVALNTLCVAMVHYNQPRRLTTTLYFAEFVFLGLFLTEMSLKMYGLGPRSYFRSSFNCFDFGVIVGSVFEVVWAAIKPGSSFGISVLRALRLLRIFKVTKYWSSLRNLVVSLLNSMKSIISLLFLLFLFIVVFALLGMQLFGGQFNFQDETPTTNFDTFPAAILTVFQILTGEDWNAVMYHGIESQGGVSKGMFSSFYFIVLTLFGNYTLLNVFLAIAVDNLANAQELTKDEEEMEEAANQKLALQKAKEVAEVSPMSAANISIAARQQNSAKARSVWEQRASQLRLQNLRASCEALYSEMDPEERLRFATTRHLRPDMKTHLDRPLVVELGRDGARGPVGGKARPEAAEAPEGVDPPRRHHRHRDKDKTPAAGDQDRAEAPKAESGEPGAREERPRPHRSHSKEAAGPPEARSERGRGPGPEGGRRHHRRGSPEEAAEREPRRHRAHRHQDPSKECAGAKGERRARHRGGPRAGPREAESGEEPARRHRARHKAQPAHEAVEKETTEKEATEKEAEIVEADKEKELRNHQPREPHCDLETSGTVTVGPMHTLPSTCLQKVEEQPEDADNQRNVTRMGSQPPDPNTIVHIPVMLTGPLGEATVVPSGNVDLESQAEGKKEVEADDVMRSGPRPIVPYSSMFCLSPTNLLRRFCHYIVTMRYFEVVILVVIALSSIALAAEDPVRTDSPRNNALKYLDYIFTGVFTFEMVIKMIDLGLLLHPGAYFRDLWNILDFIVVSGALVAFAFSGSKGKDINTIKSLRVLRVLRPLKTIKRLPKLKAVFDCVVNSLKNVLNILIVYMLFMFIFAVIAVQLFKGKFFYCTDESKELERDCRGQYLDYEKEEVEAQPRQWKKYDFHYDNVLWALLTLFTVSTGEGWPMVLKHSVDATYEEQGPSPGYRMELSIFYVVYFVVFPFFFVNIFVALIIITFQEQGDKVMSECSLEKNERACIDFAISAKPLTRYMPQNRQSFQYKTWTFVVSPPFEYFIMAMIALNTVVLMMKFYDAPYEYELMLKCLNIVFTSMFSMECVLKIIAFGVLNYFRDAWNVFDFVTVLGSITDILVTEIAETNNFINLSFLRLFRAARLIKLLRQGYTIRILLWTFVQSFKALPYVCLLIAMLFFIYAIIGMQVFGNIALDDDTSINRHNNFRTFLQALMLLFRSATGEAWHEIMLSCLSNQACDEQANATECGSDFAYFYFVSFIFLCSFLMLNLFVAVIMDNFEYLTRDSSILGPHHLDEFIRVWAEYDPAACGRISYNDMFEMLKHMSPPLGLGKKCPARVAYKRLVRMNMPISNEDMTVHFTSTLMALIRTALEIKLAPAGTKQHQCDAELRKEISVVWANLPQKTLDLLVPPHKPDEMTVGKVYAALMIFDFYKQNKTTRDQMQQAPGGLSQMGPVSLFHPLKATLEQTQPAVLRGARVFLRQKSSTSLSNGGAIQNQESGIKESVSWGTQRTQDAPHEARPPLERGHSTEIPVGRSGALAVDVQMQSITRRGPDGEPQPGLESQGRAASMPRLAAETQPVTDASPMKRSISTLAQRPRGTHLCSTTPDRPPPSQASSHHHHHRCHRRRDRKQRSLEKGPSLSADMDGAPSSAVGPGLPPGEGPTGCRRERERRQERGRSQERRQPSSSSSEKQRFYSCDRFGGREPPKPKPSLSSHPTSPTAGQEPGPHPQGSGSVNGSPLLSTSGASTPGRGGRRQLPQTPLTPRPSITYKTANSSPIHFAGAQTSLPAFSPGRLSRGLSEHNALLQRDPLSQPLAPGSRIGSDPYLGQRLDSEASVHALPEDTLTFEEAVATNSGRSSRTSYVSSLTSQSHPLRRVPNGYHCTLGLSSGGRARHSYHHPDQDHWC
Sequence (P54284 whole entry partner): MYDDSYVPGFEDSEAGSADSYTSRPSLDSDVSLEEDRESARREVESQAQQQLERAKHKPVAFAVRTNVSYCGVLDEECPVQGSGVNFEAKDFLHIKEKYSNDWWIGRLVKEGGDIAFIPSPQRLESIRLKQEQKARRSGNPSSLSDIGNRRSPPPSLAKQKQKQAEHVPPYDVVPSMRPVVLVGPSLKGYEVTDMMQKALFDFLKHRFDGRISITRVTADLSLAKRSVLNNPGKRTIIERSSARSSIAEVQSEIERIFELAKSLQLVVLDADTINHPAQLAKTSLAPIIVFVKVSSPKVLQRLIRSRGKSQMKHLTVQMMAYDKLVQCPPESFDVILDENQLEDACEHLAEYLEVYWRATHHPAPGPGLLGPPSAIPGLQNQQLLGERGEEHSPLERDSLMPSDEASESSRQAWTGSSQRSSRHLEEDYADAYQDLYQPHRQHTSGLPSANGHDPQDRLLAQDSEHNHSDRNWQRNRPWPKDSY
Sequence (P54289 25-946 partner limits assumed): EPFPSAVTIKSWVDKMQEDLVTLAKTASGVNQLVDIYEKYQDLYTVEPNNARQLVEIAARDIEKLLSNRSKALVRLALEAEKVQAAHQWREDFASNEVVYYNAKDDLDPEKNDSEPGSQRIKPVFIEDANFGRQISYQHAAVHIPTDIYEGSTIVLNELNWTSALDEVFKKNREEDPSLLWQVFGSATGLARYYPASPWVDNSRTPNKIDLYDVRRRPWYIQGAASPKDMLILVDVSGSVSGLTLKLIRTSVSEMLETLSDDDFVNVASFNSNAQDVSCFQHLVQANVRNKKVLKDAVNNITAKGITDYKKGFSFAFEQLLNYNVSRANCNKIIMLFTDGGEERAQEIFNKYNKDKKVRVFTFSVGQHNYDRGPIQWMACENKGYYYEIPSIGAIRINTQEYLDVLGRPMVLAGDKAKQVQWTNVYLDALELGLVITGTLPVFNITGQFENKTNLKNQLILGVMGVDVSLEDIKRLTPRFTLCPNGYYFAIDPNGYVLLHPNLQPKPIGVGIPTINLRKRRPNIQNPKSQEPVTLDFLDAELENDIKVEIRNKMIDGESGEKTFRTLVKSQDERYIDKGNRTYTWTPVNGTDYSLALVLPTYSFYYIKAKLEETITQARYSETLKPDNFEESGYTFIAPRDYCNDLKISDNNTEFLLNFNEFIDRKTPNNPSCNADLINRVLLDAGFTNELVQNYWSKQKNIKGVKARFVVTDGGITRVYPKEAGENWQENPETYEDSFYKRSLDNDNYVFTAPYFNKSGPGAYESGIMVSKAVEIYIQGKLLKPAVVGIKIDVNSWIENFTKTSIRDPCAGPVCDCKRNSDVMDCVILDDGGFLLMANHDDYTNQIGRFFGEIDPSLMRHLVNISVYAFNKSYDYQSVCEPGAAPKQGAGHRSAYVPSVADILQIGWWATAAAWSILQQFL
Sequence (P54289 947-1103 partner limits assumed): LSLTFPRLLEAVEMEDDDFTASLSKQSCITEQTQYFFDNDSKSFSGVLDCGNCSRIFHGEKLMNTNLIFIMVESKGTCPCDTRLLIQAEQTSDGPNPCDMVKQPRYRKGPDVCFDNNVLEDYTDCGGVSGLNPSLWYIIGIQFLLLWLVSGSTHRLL
Assay: FLIPR assay (TSA201 cells stably transfected with human Cav2.2 and human Kir2.3, FLUO-4 Ca2+ signal, KCl depolarization)
Settings: 70 mM KCl depolarization, average value
Below, each entry is listed with its recorded IC50.
Please reply with the bare figure in µM and do not write the unit itself.

For orientation, consider the following solved cases.
CC(C)(C)C(=O)N(Cc1csc(N2CCN(c3ccccn3)CC2)n1)c1ccc(F)cc1	8.1
O=C(C1CCCCC1)N(Cc1csc(N2CCOCC2)n1)c1ccc(F)cc1	11.2
CC1CN(c2nc(CN(C(=O)C(C)(C)C)c3ccc(F)cc3)cs2)CC(C)N1 (stereo not drawn)	18.5
CC(C)(C)C(=O)N(Cc1csc(NC2CCCC2)n1)c1ccc(F)cc1	3
CCN(c1nc(CN(C(=O)C(C)(C)C)C2CCCCC2)cs1)C1CC1	2.1
CC(C)(C)C(=O)N(Cc1csc(N2CCC(CO)CC2)n1)c1ccc(F)cc1	2.5
CC(C)(C)C(=O)N(Cc1csc(N2CCOCC2)n1)C1CCCCC1	11.4
CCN(c1nc(CN(C(=O)C(C)(C)C)c2ccc(OC)cc2)cs1)C1CC1	3.6

Then there is this compound:
Prompt: Reported IC50 for CC(C)(C)C(=O)N(Cc1csc(Nc2ccccc2F)n1)c1ccc(F)cc1 : what is it?
Completion: 10.2
